Subject of test: uterine OT receptors (Rattus norvegicus)
Construct: from tissue; host or cells: uterus of DES-treated rats, crude membranes
Sequence (P70536 whole entry): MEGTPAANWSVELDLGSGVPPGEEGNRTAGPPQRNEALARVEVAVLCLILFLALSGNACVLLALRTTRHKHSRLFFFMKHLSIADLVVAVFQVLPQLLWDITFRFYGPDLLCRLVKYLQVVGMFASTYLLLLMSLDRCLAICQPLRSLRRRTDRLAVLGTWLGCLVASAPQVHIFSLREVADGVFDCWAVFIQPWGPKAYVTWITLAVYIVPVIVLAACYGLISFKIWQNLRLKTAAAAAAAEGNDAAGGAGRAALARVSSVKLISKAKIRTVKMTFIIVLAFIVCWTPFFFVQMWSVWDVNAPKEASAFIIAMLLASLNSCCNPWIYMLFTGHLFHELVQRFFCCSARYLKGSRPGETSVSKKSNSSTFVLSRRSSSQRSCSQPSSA
Protocol notes: [^3 H]OT binding to uterine OT receptors, crude membrane preparation of uteri from DES-treated rats
Protocol conditions: rat uterus membranes, 1 nM [^3 H]OT; read-out: Receptor Binding Results IC50 (nM) [^3 H]OT
Numbered stars: 1 amine (or outer) side, 2 acyl side, 3 side chain; on linkers, the order of the positions; unused ones are H or OH. Square brackets hold non-standard residues; d marks the D form. Peptide text beside a SMILES is read from it. * marks the point of attachment. dPiz(1,6-dehydro) = O=C(O)[C@H]1CCC=NN1; d2Nal = N[C@H](Cc1ccc2ccccc2c1)C(=O)O; X12 = O=C([C@@H]1CCCNN1[*:1])[*:2]; X1 = O=C([C@H]1C=CCCN1[*:1])[*:2]; X6 = O=C([C@H]1CCCNN1[*:1])[*:2]; dNMeF = CN[C@H](Cc1ccccc1)C(=O)O; dPip(4-aza) = O=C(O)[C@H]1CNCCN1; Pip = O=C(O)[C@@H]1CCCCN1; dPip = O=C(O)[C@H]1CCCCN1; Nle = CCCC[C@H](N)C(=O)O; Orn = NCCC[C@H](N)C(=O)O; dNMeA = CN[C@H](C)C(=O)O; Dap = NC[C@H](N)C(=O)O; Boc = CC(C)(C)OC(=O)*; Dha = C=C(N)C(=O)O
Listed here are compounds together with their documented IC50.

| Compound | Subject of test | Measurement unit | Cmp | IC50 |
| --- | --- | --- | --- | --- |
| C=C1NC(=O)[C@H]2CCCN2C(=O)[C@H]([C@@H](C)CC)NC(=O)[C@@H](Cc2ccccc2)NC(=O)[C@@H]2CCCN2C(=O)[C@@H](Cc2ccccc2)N(C)C1=O [Example 117] (cyclo([Dha][dNMeF]P[dF]I[dP])) | uterine OT receptors (Rattus norvegicus) | nM | > | 10000 |
| CC[C@H](C)[C@@H]1NC(=O)[C@@H](Cc2ccccc2)NC(=O)[C@@H]2CCCN2C(=O)[C@@H](Cc2ccccc2)N(C)C(=O)[C@H](CN)NC(=O)[C@H]2CCCCN2C1=O [Example 121] (cyclo([Dap][dNMeF]P[dF]I[dPip])) | uterine OT receptors (Rattus norvegicus) | nM | = | 270 |
| CC[C@H](C)[C@@H]1NC(=O)[C@@H](Cc2c[nH]c3ccccc23)NC(=O)[C@@H]2CCCN2C(=O)[C@@H](Cc2ccccc2)N(C)C(=O)[C@H](CCCNC(=O)OC(C)(C)C)NC(=O)[C@H]2CCC=NN2C1=O [Example 126] (cyclo(I[dPiz(1,6-dehydro)][Orn](Boc)[dNMeF]P[dW])) | uterine OT receptors (Rattus norvegicus) | nM | = | 15 |
| CN1C(=O)[C@@H]2CCCCN2C(=O)[C@H]2CCCCN2C(=O)[C@H](Cc2ccccc2)NC(=O)[C@@H](Cc2ccccc2)NC(=O)[C@@H]2CCCN2C(=O)[C@H]1Cc1ccccc1 [Example 136] (cyclo(F[dPip][Pip][dNMeF]P[dF])) | uterine OT receptors (Rattus norvegicus) | nM | = | 410 |
| CC[C@H](C)[C@@H]1NC(=O)[C@@H](Cc2ccc3ccccc3c2)NC(=O)[C@@H]2CCCN2C(=O)[C@@H](Cc2c[nH]cn2)NC(=O)[C@@H]2CCCCN2C(=O)[C@H]2CCCCN2C1=O [Example 12] (cyclo(I[dPip][Pip][dH]P[d2Nal])) | uterine OT receptors (Rattus norvegicus) | nM | = | 1.2 |
| CC[C@H](C)[C@@H]1NC(=O)[C@@H](Cc2ccccc2)NC(=O)[C@@H]2CCCN2C(=O)[C@@H](Cc2ccccc2)N(C)C(=O)[C@H](CC(N)=O)NC(=O)[C@H]2CCCCN2C1=O [Example 118] (cyclo(I[dPip]N[dNMeF]P[dF])) | uterine OT receptors (Rattus norvegicus) | nM | = | 345 |
| CCCC[C@@H]1NC(=O)[C@@H](Cc2c[nH]c3ccccc23)NC(=O)[C@@H]2CCCN2C(=O)[C@@H](Cc2c[nH]cn2)NC(=O)[C@@H]2CCCCN2C(=O)[C@H]2CCCCN2C1=O [Example 20] (cyclo([Nle][dPip][Pip][dH]P[dW])) | uterine OT receptors (Rattus norvegicus) | nM | = | 72 |
| CC[C@H](C)[C@@H]1NC(=O)[C@@H](Cc2ccccc2)NC(=O)[C@@H]2CCCN2C(=O)[C@@H](Cc2ccccc2)N(C)C(=O)[C@@H]2CCCCN2C(=O)[C@@H](C)N(C)C1=O [Example 8] (cyclo(I[dNMeA][Pip][dNMeF]P[dF])) | uterine OT receptors (Rattus norvegicus) | nM | = | 850 |
| CC[C@H](C)[C@@H]1NC(=O)[C@@H](Cc2c[nH]c3ccccc23)NC(=O)[C@@H]2CCCN2C(=O)[C@@H](Cc2ccccc2)N(C)C(=O)[C@@H]2CCCCN2C(=O)[C@H]2CCCCN2C1=O [Example 30] (cyclo(I[dPip][Pip][dNMeF]P[dW])) | uterine OT receptors (Rattus norvegicus) | nM | = | 20 |
| CC[C@H](C)[C@@H]1NC(=O)[C@@H](Cc2ccccc2)NC(=O)[C@@H]2CCCN2C(=O)[C@@H](Cc2ccccc2)N(C)C(=O)[C@@H]2CCCCN2C(=O)[C@H]2C=CCCN2C1=O [Example 24] (cyclo(I[X1][Pip][dNMeF]P[dF])) | uterine OT receptors (Rattus norvegicus) | nM | = | 640 |
| CC[C@H](C)[C@@H]1NC(=O)[C@@H](Cc2ccccc2)NC(=O)[C@@H]2CCCN2C(=O)[C@@H](Cc2c[nH]cn2)NC(=O)[C@@H]2CCCCN2C(=O)[C@H]2CCCNN2C1=O [Example 14] (cyclo(I[X6][Pip][dH]P[dF])) | uterine OT receptors (Rattus norvegicus) | nM | = | 38 |
| CC[C@H](C)[C@@H]1NC(=O)[C@@H](Cc2ccc3ccccc3c2)NC(=O)[C@@H]2CCCN2C(=O)[C@@H](Cc2c[nH]cn2)NC(=O)[C@H]2CNCCN2C(=O)[C@H]2CCCCN2C1=O [Example 161] (cyclo(I[dPip][dPip(4-aza)][dH]P[d2Nal])) | uterine OT receptors (Rattus norvegicus) | nM | = | 6.7 |
| CC[C@H](C)[C@@H]1NC(=O)[C@@H](Cc2ccc(O)cc2)NC(=O)[C@@H]2CCCN2C(=O)[C@@H](Cc2ccccc2)NC(=O)[C@@H]2CCCNN2C(=O)[C@H]2CCCNN2C1=O [Example 97] (cyclo([dY]I[X6][X12][dF]P)) | uterine OT receptors (Rattus norvegicus) | nM | > | 10000 |
| CC[C@H](C)[C@@H]1NC(=O)[C@@H](Cc2ccccc2)NC(=O)[C@@H]2CCCN2C(=O)[C@@H](Cc2ccccc2)N(C)C(=O)[C@@H]2CCCN2C(=O)[C@H]2CCCN2C1=O [Example 52] (cyclo([dNMeF]P[dF]I[dP]P)) | uterine OT receptors (Rattus norvegicus) | nM | = | 3400 |
| CC[C@H](C)[C@@H]1NC(=O)[C@@H](Cc2ccccc2)NC(=O)[C@@H]2CCCN2C(=O)[C@@H](Cc2ccccc2)N(C)C(=O)[C@H](Cc2cnc[nH]2)NC(=O)[C@H]2CCCCN2C1=O [Example 13] (cyclo(H[dNMeF]P[dF]I[dPip])) | uterine OT receptors (Rattus norvegicus) | nM | = | 150 |
